Origin of the recorded values: the supplement of paper PMC11451515

# Test system: P12-Ichikawa
# Assay Remarks: cell viability relative to DMSO control; higher = less cytotoxic
# Condition Context: RPMI 5 mM glucose + 10% dialyzed FBS; 48 h; 0.00234 µM
Parameter Measured: cell viability (%)
Please respond with the number in % and leave the unit unwritten.

The recorded cell viability for entry NC(=O)c1cccc(-c2cc(Nc3ccc(OC(F)(F)F)cc3)ncn2)c1 equals 85.7

The recorded cell viability for entry Cc1ccc([C@@H]2O[C@H](CO)[C@@H](O)[C@H](O)[C@H]2O)cc1Cc1ccc(-c2ccc(F)cc2)s1 equals 117

The recorded cell viability for entry COc1ccccc1[C@H](c1cccc2ccccc12)[C@@](C)(C#N)C(=O)N1CCC(c2cccc(C(F)(F)F)c2)CC1 equals 108

The recorded cell viability for entry CCCOc1ccc(C(=O)OCCN(CC)CC)cc1N equals 115

The recorded cell viability for entry C[C@@H]1CC[C@@]2(CC[C@]3(C)\C(=C/C[C@@H]4[C@@]5(C)CC[C@H](O)C(C)(C)[C@@H]5CC[C@@]34C)[C@@H]2[C@H]1C)C(O)=O equals 106

The recorded cell viability for entry O=C(O)c1cc(O)c2c(c1)C(=O)c1cccc(O)c1C2=O equals 119

The recorded cell viability for entry OC1=CC=C(C=C1)C/2=C/C3=C(OC2)C=C(O)C=C3 equals 112

The recorded cell viability for entry OC[C@H]1O[C@H](C[C@@H]1O)N2/C=C(C(=O)NC2=O)/C(F)(F)F equals 114

The recorded cell viability for entry O=C(c1cncc(Br)c1)N1CCC(N2CCCC2)CC1 equals 102
